Provide the recorded Spleen for the entries that follow.
- Tested on: S180 tumor
- TEST_SUMMARY: Biodistribution in tumor-bearing mice
- Type: in vivo
- PROTOCOL_CONDITIONS: 120 min, i.v., mice bearing S180 tumor, mean ± SD
- Description: The mice bearing S180 tumors were injected intravenously via the tail vein respectively with the solutions (0.1 mL, 370 kBq) containing the radioactive drugs of Examples 1-4. […] After dissection, the heart, liver, lung, kidney, spleen, bone, muscle, small intestine, blood and tumors were harvested, and measured for radioactivity with the γ-counter. The biodistribution individual organs or tissues was expressed as the percentage of the injected dose per gram of organ or tissue (% ID/g).
Answers are plain numbers, in % ID/g.

Below, 2 compounds whose answers are already recorded.
O=C(NC1C(O)OC(CO)C(O)C1O)c1cccc(C[N+]#[C][99Tc+]([C]#[N+]Cc2cccc(C(=O)NC3C(O)OC(CO)C(O)C3O)c2)([C]#[N+]Cc2cccc(C(=O)NC3C(O)OC(CO)C(O)C3O)c2)([C]#[N+]Cc2cccc(C(=O)NC3C(O)OC(CO)C(O)C3O)c2)([C]#[N+]Cc2cccc(C(=O)NC3C(O)OC(CO)C(O)C3O)c2)[C]#[N+]Cc2cccc(C(=O)NC3C(O)OC(CO)C(O)C3O)c2)c1 (stereo not shown) [^99mTc-3-CNPEDG] : 0.25
O=C(NC1C(O)OC(CO)C(O)C1O)c1cccc([N+]#[C][99Tc+]([C]#[N+]c2cccc(C(=O)NC3C(O)OC(CO)C(O)C3O)c2)([C]#[N+]c2cccc(C(=O)NC3C(O)OC(CO)C(O)C3O)c2)([C]#[N+]c2cccc(C(=O)NC3C(O)OC(CO)C(O)C3O)c2)([C]#[N+]c2cccc(C(=O)NC3C(O)OC(CO)C(O)C3O)c2)[C]#[N+]c2cccc(C(=O)NC3C(O)OC(CO)C(O)C3O)c2)c1 (stereo not shown) [^99mTc-3-CNBzDG] : 0.43

Count: 2. Required value per item: Spleen.
1. O=C(NC1C(O)OC(CO)C(O)C1O)c1ccc(CC[N+]#[C][99Tc+]([C]#[N+]CCc2ccc(C(=O)NC3C(O)OC(CO)C(O)C3O)cc2)([C]#[N+]CCc2ccc(C(=O)NC3C(O)OC(CO)C(O)C3O)cc2)([C]#[N+]CCc2ccc(C(=O)NC3C(O)OC(CO)C(O)C3O)cc2)([C]#[N+]CCc2ccc(C(=O)NC3C(O)OC(CO)C(O)C3O)cc2)[C]#[N+]CCc2ccc(C(=O)NC3C(O)OC(CO)C(O)C3O)cc2)cc1 (stereo not shown) [^99mTc-4-CNPeDG]
2. O=C(Cc1ccc(C[N+]#[C][99Tc+]([C]#[N+]Cc2ccc(CC(=O)NC3C(O)OC(CO)C(O)C3O)cc2)([C]#[N+]Cc2ccc(CC(=O)NC3C(O)OC(CO)C(O)C3O)cc2)([C]#[N+]Cc2ccc(CC(=O)NC3C(O)OC(CO)C(O)C3O)cc2)([C]#[N+]Cc2ccc(CC(=O)NC3C(O)OC(CO)C(O)C3O)cc2)[C]#[N+]Cc2ccc(CC(=O)NC3C(O)OC(CO)C(O)C3O)cc2)cc1)NC1C(O)OC(CO)C(O)C1O (stereo not shown) [^99mTc-4-CNMBDG]

result:
1. 0.17
2. 1.28

###

- Tested on: S180 tumor
- TEST_SUMMARY: Biodistribution in tumor-bearing mice
- Format: in vivo
- PROTOCOL_CONDITIONS: 120 min, i.v., mice bearing S180 tumor, mean ± SD
READOUT_TYPE: Lung (% ID/g)
Give bare numbers, in % ID/g.

query: What value of Lung has been recorded for this entry: O=C(NC1C(O)OC(CO)C(O)C1O)c1ccc(CC[N+]#[C][99Tc+]([C]#[N+]CCc2ccc(C(=O)NC3C(O)OC(CO)C(O)C3O)cc2)([C]#[N+]CCc2ccc(C(=O)NC3C(O)OC(CO)C(O)C3O)cc2)([C]#[N+]CCc2ccc(C(=O)NC3C(O)OC(CO)C(O)C3O)cc2)([C]#[N+]CCc2ccc(C(=O)NC3C(O)OC(CO)C(O)C3O)cc2)[C]#[N+]CCc2ccc(C(=O)NC3C(O)OC(CO)C(O)C3O)cc2)cc1 (stereo not shown) [^99mTc-4-CNPeDG]
result: 0.23
